- Tested on: GRK2 (Homo sapiens, UniProt P25098)
- Sequence (P25098 whole entry): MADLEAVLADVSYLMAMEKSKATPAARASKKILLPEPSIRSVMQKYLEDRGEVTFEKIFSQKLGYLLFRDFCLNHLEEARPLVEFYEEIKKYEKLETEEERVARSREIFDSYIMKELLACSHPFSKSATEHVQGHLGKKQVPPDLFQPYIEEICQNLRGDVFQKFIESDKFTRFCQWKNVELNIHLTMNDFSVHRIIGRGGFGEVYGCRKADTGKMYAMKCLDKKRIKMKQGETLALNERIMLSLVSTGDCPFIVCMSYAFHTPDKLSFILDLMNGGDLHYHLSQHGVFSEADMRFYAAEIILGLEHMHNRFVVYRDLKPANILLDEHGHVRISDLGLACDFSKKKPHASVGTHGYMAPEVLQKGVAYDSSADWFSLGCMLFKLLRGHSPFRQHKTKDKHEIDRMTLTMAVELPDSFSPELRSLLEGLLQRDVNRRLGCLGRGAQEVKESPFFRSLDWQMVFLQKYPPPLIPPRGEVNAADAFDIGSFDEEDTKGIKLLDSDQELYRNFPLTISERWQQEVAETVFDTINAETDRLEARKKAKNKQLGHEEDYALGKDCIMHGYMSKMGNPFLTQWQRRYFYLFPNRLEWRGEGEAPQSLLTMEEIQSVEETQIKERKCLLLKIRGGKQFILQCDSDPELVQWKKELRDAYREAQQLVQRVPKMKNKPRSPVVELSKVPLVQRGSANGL
- Assay procedure: hGRK2 LANCE Ultra In Vitro Assay
- Assay type: biochemical
- Stated conditions: Biological Example 1 GRK2 Lancer IC50 (μM), 10 nM GRK2; 30 or 600 μM ATP (not stated which); multiple measurements listed individually
Test readout: IC50 (µM)
One number for each entry, in µM.

>>> observed("COc1cccc([C@@H](C)N2Cc3c(cc(-c4cn[nH]c4)cc3N3CCN(C)CC3)C2=O)c1")
0.011
>>> observed("COc1cccc(C(CO)N2Cc3ccc(-c4ccnc(N)n4)cc3C2=O)c1 (stereo not drawn)")
0.047
>>> observed("COc1cccc(CN2C(=O)c3cc(-c4cn[nH]c4)ccc3C23CCCC3)c1")
0.006

Ask: Given the entry COc1cccc(C(C(=O)O)N2Cc3ccc(-c4cn[nH]c4)cc3C2=O)c1 (stereo not drawn) , report its measured IC50.
Reply: 0.815

* * *

- Tested on: GRK2 (Homo sapiens)
- Assay procedure: hGRK2 LANCE Ultra In Vitro Assay
- Format: biochemical
- Stated conditions: Biological Example 1 GRK2 Lancer IC50 (μM), 10 nM GRK2; 30 or 600 μM ATP (not stated which); multiple measurements listed individually
I'd be grateful if you could share measured IC50 for these entries.

Worked examples follow.
>>> observed("CCOc1cccc([C@@H](C)N2Cc3ccc(-c4ccnc5[nH]ccc45)cc3C2=O)c1 [Compound 167]")
"> 20 µM"
>>> observed("O=C(N[C@H]1C[C@H]2CC[C@@H]1C2)c1cccc(CN2Cc3ccc(-c4cn[nH]c4)cc3C2=O)c1 [Compound 128]")
"< 0.005 µM"
>>> observed("CC(c1cccc(Oc2ccccc2)c1)N1Cc2ccc(-c3cn[nH]c3)cc2C1=O (stereo not shown) [Compound 104]")
"> 11 µM"

From here, focus on the item given below.
Ask: Given the entry CCOc1cccc(C(C(=O)O)N2Cc3ccc(-c4ccncc4)cc3C2=O)c1 (stereo not shown) [Compound 77] , report its measured IC50.
Reply: > 20 µM

All values here come from patent US20220009906A1.
